Measured values drawn from patent US7135466B2 for this set.

# target-under-test: c-kit (Homo sapiens, UniProt P10721)
# Construct: MO7e (human megakaryocytic leukemia cell line) which had been arrested for 20 hr; endogenous in cells; host or cells: MO7e human megakaryocytic leukemia cell line
# Sequence (P10721 26-976): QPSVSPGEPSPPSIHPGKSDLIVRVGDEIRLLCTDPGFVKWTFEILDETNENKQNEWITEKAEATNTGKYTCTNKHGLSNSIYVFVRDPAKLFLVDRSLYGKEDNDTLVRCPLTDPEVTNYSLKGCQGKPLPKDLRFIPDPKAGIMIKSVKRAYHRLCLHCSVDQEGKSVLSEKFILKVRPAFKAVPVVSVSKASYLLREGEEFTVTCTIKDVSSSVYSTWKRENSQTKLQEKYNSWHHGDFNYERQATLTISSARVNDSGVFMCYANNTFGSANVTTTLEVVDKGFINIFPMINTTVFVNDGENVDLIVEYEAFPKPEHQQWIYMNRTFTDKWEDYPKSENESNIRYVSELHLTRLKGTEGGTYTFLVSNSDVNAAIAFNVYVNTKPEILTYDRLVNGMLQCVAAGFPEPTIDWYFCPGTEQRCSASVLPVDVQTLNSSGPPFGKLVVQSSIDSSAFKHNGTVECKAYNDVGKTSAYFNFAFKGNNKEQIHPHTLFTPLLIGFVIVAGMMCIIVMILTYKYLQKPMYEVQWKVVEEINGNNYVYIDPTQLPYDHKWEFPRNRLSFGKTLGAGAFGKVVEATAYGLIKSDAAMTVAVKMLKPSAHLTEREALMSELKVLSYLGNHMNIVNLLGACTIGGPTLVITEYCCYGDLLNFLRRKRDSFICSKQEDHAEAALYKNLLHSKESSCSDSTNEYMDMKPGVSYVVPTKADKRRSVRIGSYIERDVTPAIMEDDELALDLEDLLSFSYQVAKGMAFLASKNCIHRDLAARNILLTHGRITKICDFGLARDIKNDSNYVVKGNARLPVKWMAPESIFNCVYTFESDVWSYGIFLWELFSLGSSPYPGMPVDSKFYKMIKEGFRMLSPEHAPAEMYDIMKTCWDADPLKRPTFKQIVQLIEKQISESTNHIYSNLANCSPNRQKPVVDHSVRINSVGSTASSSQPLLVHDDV
# assay-explanation: Inhibitory activity against c-kit autophosphorylation (MO7e cells, h-SCF)
# Type: cell-based
# conditions-used: MO7e cells, h-SCF 50 ng/ml; read-out: c-kit IC50
pIC50: −log10 of the molar value.
Assign class by pIC50: not lower than 7 means label 1; lower than 7 means label 0.

Is the recorded value of pIC50 equal to or greater than 7 for this compound? COc1cc2nccc(Oc3ccc(NC(=O)OCCCSc4ccc(C)cc4)cc3)c2cc1OC [Example 37]
label 1

Is the recorded value of pIC50 equal to or greater than 7 for this compound? COc1cc2nccc(Oc3ccc(NC(=O)Sc4ccc(Cl)cc4C)cc3)c2cc1OC [Example 176]
label 1

Is the recorded value of pIC50 equal to or greater than 7 for this compound? COc1cc2nccc(Oc3ccc(NC(=O)OC(C)c4ccccc4Cl)c(C)c3C)c2cc1OC (stereo not shown) [Example 14]
label 0

Is the recorded value of pIC50 equal to or greater than 7 for this compound? CCCC(CCC)OC(=O)Nc1ccc(Oc2ccnc3cc(OC)c(OC)cc23)cc1 [Example 332]
label 0

Continuing:
Is the recorded value of pIC50 equal to or greater than 7 for this compound? COc1cccc(COC(=O)Nc2ccc(Oc3ccnc4cc(OC)c(OC)cc34)c(C)c2C)c1 [Example 238]
label 1

Is the recorded value of pIC50 equal to or greater than 7 for this compound? COc1cc2ncnc(Oc3ccc(NC(=O)OC(C)c4cccc(C(F)(F)F)c4)cc3)c2cc1OC (stereo not shown) [Example 90]
label 0

Is the recorded value of pIC50 equal to or greater than 7 for this compound? COc1cc2nccc(Oc3ccc(NC(=O)OCC4CCC4)c(C)c3C)c2cc1OC [Example 387]
label 1

Is the recorded value of pIC50 equal to or greater than 7 for this compound? COc1cccc(COC(=O)Nc2cc(C)c(Oc3ccnc4cc(OC)c(OC)cc34)cc2C)c1 [Example 240]
label 0

Is the recorded value of pIC50 equal to or greater than 7 for this compound? COc1cc2nccc(Oc3cc(C)c(NC(=O)OCCSc4cc(C)ccc4C)cc3C)c2cc1OC [Example 167]
label 0

Is the recorded value of pIC50 equal to or greater than 7 for this compound? COc1cc2ncnc(Oc3ccc(NC(=O)OCCCSc4ccc(C)cc4)c(Cl)c3)c2cc1OC [Example 41]
label 0

Is the recorded value of pIC50 equal to or greater than 7 for this compound? COc1cc2ncnc(Oc3ccc(NC(=O)OCCCOc4cccc(F)c4)c(C)c3C)c2cc1OC [Example 151]
label 1

Is the recorded value of pIC50 equal to or greater than 7 for this compound? CCCCC(CCCC)OC(=O)Nc1ccc(Oc2ncnc3cc(OC)c(OC)cc23)cc1 [Example 371]
label 0

Is the recorded value of pIC50 equal to or greater than 7 for this compound? COc1cc2nccc(Oc3cc(C)c(NC(=O)OCCN4CCOCC4)cc3C)c2cc1OC [Example 307]
label 0

Is the recorded value of pIC50 equal to or greater than 7 for this compound? CCC(CC)OC(=O)Nc1ccc(Oc2ncnc3cc(OC)c(OC)cc23)cc1 [Example 361]
label 0

---

# target-under-test: c-kit (Homo sapiens)
# Construct: MO7e (human megakaryocytic leukemia cell line) which had been arrested for 20 hr; endogenous in cells; host or cells: MO7e human megakaryocytic leukemia cell line
# assay-explanation: Inhibitory activity against c-kit autophosphorylation (MO7e cells, h-SCF)
# Format: cell-based
# conditions-used: Mo7e, figure in parentheses in −( ); at 1000 nM
measured-metric: inhibition at 1 µM (%)
Numbers only, in %.

Known inhibition at 1 µM results, listed for orientation:
Value lookup for inhibition at 1 µM; key = COc1cc2nccc(Oc3cc(C)c(NC(=O)OC(C)c4cc(F)c(F)cc4F)cc3C)c2cc1OC (centres unmarked) [Example 94]
31

Value lookup for inhibition at 1 µM; key = COc1cc2ncnc(Oc3ccc(NC(=S)NC(=O)c4ccccn4)cc3)c2cc1OC [Example 1156]
28

Value lookup for inhibition at 1 µM; key = COc1cc2nccc(Oc3ccc(NC(=S)NC(=O)c4ccccc4Cl)c(C)c3C)c2cc1OC [Example 1078]
32

Value lookup for inhibition at 1 µM; key = COc1cc2nccc(Oc3cc(C)c(NCCCOc4ccccc4Cl)cc3C)c2cc1OC [Example 892]
30

Continuing:
Value lookup for inhibition at 1 µM; key = CCC(CC)OC(=O)Nc1ccc(Oc2ncnc3cc(OC)c(OC)cc23)cc1Cl [Example 362]
26

---

# target-under-test: PDGF-Ra (Homo sapiens, UniProt P16234)
# Construct: host or cells: G-292 human osteosarcoma cells
# Sequence (P16234 24-1089): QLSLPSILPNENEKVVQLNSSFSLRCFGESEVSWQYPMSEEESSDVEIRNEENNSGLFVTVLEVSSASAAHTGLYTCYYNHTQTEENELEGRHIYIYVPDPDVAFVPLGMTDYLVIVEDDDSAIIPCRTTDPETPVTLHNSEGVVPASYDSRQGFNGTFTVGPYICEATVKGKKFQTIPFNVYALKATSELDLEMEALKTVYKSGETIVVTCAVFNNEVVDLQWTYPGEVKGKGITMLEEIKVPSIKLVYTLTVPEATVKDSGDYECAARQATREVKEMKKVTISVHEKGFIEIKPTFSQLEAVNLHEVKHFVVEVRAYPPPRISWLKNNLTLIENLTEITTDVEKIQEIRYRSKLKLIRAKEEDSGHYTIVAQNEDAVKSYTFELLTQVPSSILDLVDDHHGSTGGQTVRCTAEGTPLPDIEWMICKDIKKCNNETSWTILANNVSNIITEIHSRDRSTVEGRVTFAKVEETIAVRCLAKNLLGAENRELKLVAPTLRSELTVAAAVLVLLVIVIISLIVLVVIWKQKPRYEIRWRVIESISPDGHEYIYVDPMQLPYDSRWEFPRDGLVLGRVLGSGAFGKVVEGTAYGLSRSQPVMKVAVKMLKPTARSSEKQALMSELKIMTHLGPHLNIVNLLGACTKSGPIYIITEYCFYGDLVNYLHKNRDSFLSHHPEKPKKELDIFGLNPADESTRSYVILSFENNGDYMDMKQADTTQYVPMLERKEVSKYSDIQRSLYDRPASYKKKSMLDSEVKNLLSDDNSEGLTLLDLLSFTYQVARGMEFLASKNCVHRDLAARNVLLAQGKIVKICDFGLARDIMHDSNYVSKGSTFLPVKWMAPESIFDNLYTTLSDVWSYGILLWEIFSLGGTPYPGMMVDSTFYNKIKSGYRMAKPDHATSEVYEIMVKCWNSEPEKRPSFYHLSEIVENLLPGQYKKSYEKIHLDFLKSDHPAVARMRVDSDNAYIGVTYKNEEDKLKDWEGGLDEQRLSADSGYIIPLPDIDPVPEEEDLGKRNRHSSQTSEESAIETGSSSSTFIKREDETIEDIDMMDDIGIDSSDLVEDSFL
# assay-explanation: Inhibitory activity against PDGF-Ra phosphorylation by PDGF-AA stimulation using G292
# Type: cell-based
# conditions-used: > means inhibition at indicated concentration not more than 50%, < and << not less than 50%; read-out: PDGF (E) IC50
measured-metric: IC50

Value lookup for IC50; key = COc1cc2nccc(Oc3ccc(NC(=S)NC(=O)c4ccc(Br)cc4)c(Cl)c3)c2cc1OC
> 100 nM

Value lookup for IC50; key = COc1cc2nccc(Oc3ccc(NC(=O)Oc4cccc(C#N)c4)cc3)c2cc1OC
> 100 nM

Value lookup for IC50; key = COc1cc2nccc(Oc3ccc(NC(=O)NN4CCCCCC4)cc3)c2cc1OC
< 10 nM

Value lookup for IC50; key = COc1cc2nccc(Oc3ccc(NC(=O)NC4CCN(Cc5ccccc5)CC4)c([N+](=O)[O-])c3)c2cc1OC
> 100 nM

Now look at this entry.
Value lookup for IC50; key = COc1cc2nccc(Oc3cc(C)c(NC(=O)OCN4C(=O)c5ccccc5C4=O)cc3C)c2cc1OC
> 100 nM

---

Kindly state pIC50 for each of the entries shown.
# target-under-test: PDGF-Ra (Homo sapiens)
# Construct: host or cells: G-292 human osteosarcoma cells
# assay-explanation: Inhibitory activity against PDGF-Ra phosphorylation by PDGF-AA stimulation using G292
# Format: cell-based
# conditions-used: > means inhibition at indicated concentration not more than 50%, < and << not less than 50%; read-out: PDGF (E) IC50
pIC50: −log10 of the molar value.

Hey, quick one: what's pIC50 for each of these?
1. COc1cc2nccc(Oc3cc(C)c(NC(=S)NCCN4CCCCC4)cc3C)c2cc1OC
2. COc1cc2nccc(Oc3cc(C)c(NCCCOc4ccccc4)cc3C)c2cc1OC
3. COc1cc2nccc(Oc3ccc(NC(=S)NC(=O)c4ccc(C)cc4)cc3)c2cc1OC
4. CCCc1ccc(C(=O)NC(=S)Nc2ccc(Oc3ccnc4cc(OC)c(OC)cc34)c(Cl)c2)cc1
5. COc1ccc(C(=O)NC(=S)Nc2ccc(Oc3ncnc4cc(OC)c(OC)cc34)cc2)cc1OC

1: < 7.00; 2: < 7.00; 3: > 8.00; 4: > 8.00; 5: > 8.00

---

# target-under-test: c-kit (Homo sapiens, UniProt P10721)
# Construct: MO7e (human megakaryocytic leukemia cell line) which had been arrested for 20 hr; endogenous in cells; host or cells: MO7e human megakaryocytic leukemia cell line
# assay-explanation: Inhibitory activity against c-kit autophosphorylation (MO7e cells, h-SCF)
# Assay type: cell-based
# conditions-used: MO7e cells, h-SCF stimulation; read-out: c-kit IC50
Kindly state pIC50 for each of the entries shown.
Answers are plain numbers, as −log10 of the molar value.

Known pIC50 results, listed for orientation:
Value lookup for pIC50; key = CCOc1ccc(C(=O)NC(=S)Nc2ccc(Oc3ccnc4cc(OC)c(OC)cc34)c(Cl)c2)cc1 [Example 992]
6.12

Value lookup for pIC50; key = COc1cc2nccc(Oc3ccc(NC(=S)NC(=O)C4CCCC4)cc3Cl)c2cc1OC [Example 1182]
6.69

Value lookup for pIC50; key = COc1cc2nccc(Oc3ccc(NC(=S)NC(=O)CCCCl)c(F)c3)c2cc1OC [Example 1066]
6.55

Value lookup for pIC50; key = COc1cc2nccc(Oc3ccc(NC(=S)NC(=O)c4cccc(F)c4)c(F)c3)c2cc1OC [Example 937]
6.09

Hey, quick one: what's pIC50 for each of these?
1. COc1cc2nccc(Oc3ccc(NC(=S)NC(=O)C4CC4C)cc3Cl)c2cc1OC (centres unmarked) [Example 1190]
2. COc1cccc(OCCCOc2ccc(Oc3ncnc4cc(OC)c(OC)cc34)cc2)c1 [Example 809]
3. COc1cc2nccc(Oc3ccc(NC(=S)NC(=O)C4CCCC4)cc3)c2cc1OC [Example 1061]
4. COc1cc2nccc(Oc3ccc(NC(=S)NC(=O)CCCCl)cc3F)c2cc1OC [Example 1068]
5. COc1cc2ncnc(Oc3ccc(NC(=S)NC(=O)Cc4ccccc4)cc3)c2cc1OC [Example 1148]
6. COc1cc2nccc(Oc3ccc(NC(=S)NC(=O)c4cc(Cl)cc(Cl)c4)cc3Cl)c2cc1OC [Example 1116]

6.62
7.14
6.87
6.91
7.38
6.06
